// data source = patent US5776899A

Consider the following molecules; for each one, report its CC50.
Test system: MT-4 cells
Experiment: Cytotoxicity on virus-non-infected MT-4 cells (MTT method)
Format: cell-based
Conditions: Table 5; method of Example 2, virus-non-infected MT-4 cells
Positions of bridges follow the written chain, without caps; N, C: chain ends. Non-standard residues stand in square brackets, D forms with d. Residues, ends and D or L forms follow the SMILES beside them. *: point of attachment. Myristoyl = CCCCCCCCCCCCCC(=O)*
Please state the figure in µg/mL; there is no need to write the unit.

Give its CC50 value. Item: N=C(N)NCCC[C@H](NC(=O)[C@@H]1CSSC[C@H](NC(=O)[C@H](Cc2c[nH]c3ccccc23)NC(=O)[C@H](CCCNC(=N)N)NC(=O)[C@@H](N)CCCNC(=N)N)C(=O)N[C@@H](Cc2ccc(O)cc2)C(=O)N[C@@H](CCCNC(=N)N)C(=O)N[C@@H](CCCCN)C(=O)N[C@H](CCCCN)C(=O)N2CCC[C@H]2C(=O)N[C@@H](Cc2ccc(O)cc2)C(=O)N[C@@H](CCCNC(=N)N)C(=O)N[C@@H](CCCCN)C(=O)N1)C(N)=O [Polypeptide (1)] (H-RRWCYRK[dK]PYRKCR-NH2; disulfide 4-13)
65.37

Give its CC50 value. Item: N=C(N)NCCC[C@H](NC(=O)[C@@H]1CSSC[C@H](NC(=O)[C@H](Cc2c[nH]c3ccccc23)NC(=O)[C@H](CCCNC(=N)N)NC(=O)[C@@H](N)CCCNC(=N)N)C(=O)N[C@@H](Cc2ccc(O)cc2)C(=O)N[C@@H](CCCNC(=N)N)C(=O)N[C@@H](CCCCN)C(=O)N[C@@H](CCCCN)C(=O)NCC(=O)N[C@@H](Cc2ccc(O)cc2)C(=O)N[C@@H](CCCNC(=N)N)C(=O)N[C@@H](CCCCN)C(=O)N1)C(N)=O [Polypeptide (3)] (H-RRWCYRKKGYRKCR-NH2; disulfide 4-13)
198.18

Give its CC50 value. Item: CC(=O)N[C@@H](CCCNC(=N)N)C(=O)N[C@@H](CCCNC(=N)N)C(=O)N[C@@H](Cc1c[nH]c2ccccc12)C(=O)N[C@H]1CSSC[C@@H](C(=O)N[C@@H](CCCNC(=N)N)C(N)=O)NC(=O)[C@H](CCCCN)NC(=O)[C@H](CCCNC(=N)N)NC(=O)[C@H](Cc2ccc(O)cc2)NC(=O)[C@@H]2CCCN2C(=O)[C@@H](CCCCN)NC(=O)[C@H](CCCCN)NC(=O)[C@H](CCCNC(=N)N)NC(=O)[C@H](Cc2ccc(O)cc2)NC1=O [Polypeptide (14)] (Ac-RRWCYRK[dK]PYRKCR-NH2; disulfide 4-13)
78.14

Give its CC50 value. Item: CCCCCCCCCCCCCC(=O)N[C@@H](CCCNC(=N)N)C(=O)N[C@@H](CCCNC(=N)N)C(=O)N[C@@H](Cc1c[nH]c2ccccc12)C(=O)N[C@H]1CSSC[C@@H](C(=O)N[C@@H](CCCNC(=N)N)C(N)=O)NC(=O)[C@H](CCCCN)NC(=O)[C@H](CCCNC(=N)N)NC(=O)[C@H](Cc2ccc(O)cc2)NC(=O)[C@@H]2CCCN2C(=O)[C@@H](CCCCN)NC(=O)[C@H](CCCCN)NC(=O)[C@H](CCCNC(=N)N)NC(=O)[C@H](Cc2ccc(O)cc2)NC1=O [Polypeptide (17)] (Myristoyl-RRWCYRK[dK]PYRKCR-NH2; disulfide 4-13)
106.60

Give its CC50 value. Item: N=C(N)NCCC[C@H](NC(=O)[C@@H]1CSSC[C@H](NC(=O)[C@H](Cc2c[nH]c3ccccc23)NC(=O)[C@H](CCCNC(=N)N)NC(=O)[C@@H](N)CCCNC(=N)N)C(=O)N[C@@H](Cc2ccc(O)cc2)C(=O)N[C@@H](CCCNC(=N)N)C(=O)N[C@@H](CCCCN)C(=O)N[C@H](CCCCNC(=O)CN)C(=O)N2CCC[C@H]2C(=O)N[C@@H](Cc2ccc(O)cc2)C(=O)N[C@@H](CCCNC(=N)N)C(=O)N[C@@H](CCCCN)C(=O)N1)C(N)=O (H-RRWCYRK[dK](Gly)PYRKCR-NH2; disulfide 4-13)
44.26
